Dear all, I have gathered published IC50 values for Nitric oxide synthase 3 (Homo sapiens); the list follows.
Write the answer as a number in µM, unit excluded.

Known IC50 results, listed for orientation:
compound: CSC(=N)N
assay.system: Nitric oxide synthase 3 (Homo sapiens)
IC50 [µM]: 7
//
compound: COc1ccnc(CCc2nc3ccc(OC)nc3[nH]2)c1
assay.system: Nitric oxide synthase 3 (Homo sapiens)
IC50 [µM]: 100
//
compound: NC1=N[C@H]2CCCC[C@H]2CC1
assay.system: Nitric oxide synthase 3 (Homo sapiens)
IC50 [µM]: 12.5
//
compound: NC1=Nc2ccccc2CC1
assay.system: Nitric oxide synthase 3 (Homo sapiens)
IC50 [µM]: 85

**Query** Form field - read-out: IC50; system: Nitric oxide synthase 3 (Homo sapiens); submitted item: `NC1=NCCC1`
**Result** 93

**Query** Form field - read-out: IC50; system: Nitric oxide synthase 3 (Homo sapiens); submitted item: CC1CCCN=C1N (centres undefined)
**Result** 3

**Query** Form field - read-out: IC50; system: Nitric oxide synthase 3 (Homo sapiens); submitted item: CC1CN=C(N)C1 (centres undefined)
**Result** 14.2

**Query** Form field - read-out: IC50; system: Nitric oxide synthase 3 (Homo sapiens); submitted item: CC(C)C1CN=C(N)C1 (centres undefined)
**Result** 87.8

**Query** Form field - read-out: IC50; system: Nitric oxide synthase 3 (Homo sapiens); submitted item: `CN1CCC(N(C)Cc2cc(Cl)ccc2C(F)(F)F)CC1`
**Result** 1.4

**Query** Form field - read-out: IC50; system: Nitric oxide synthase 3 (Homo sapiens); submitted item: `CN(C)[C@H]1CC[C@@H](c2c[nH]c3ccc(NC(=N)c4cccs4)cc32)CC1`
**Result** 17.5

**Query** Form field - read-out: IC50; system: Nitric oxide synthase 3 (Homo sapiens); submitted item: `CN1CCC(c2c[nH]c3ccc(NC(=N)c4ccccc4)cc23)CC1`
**Result** 249

**Query** Form field - read-out: IC50; system: Nitric oxide synthase 3 (Homo sapiens); submitted item: `CN(Cc1cc(Cl)ccc1C#N)C1CCN(CCc2ccccc2)CC1`
**Result** 0.22

**Query** Form field - read-out: IC50; system: Nitric oxide synthase 3 (Homo sapiens); submitted item: `CCCCNC(=O)N1CCC(O)(c2cccc(NC(=N)c3cccs3)c2)CC1`
**Result** 10

**Query** Form field - read-out: IC50; system: Nitric oxide synthase 3 (Homo sapiens); submitted item: `Cc1ccc(N)nc1C`
**Result** 2.8
